Kindly state EC50 for each of the entries shown.
Tested on: Human peripheral blood mononuclear cells (PBMC)
Experiment: PBMC screening assay: TNF-α in supernatant by ELISA or HTRF
Format: cell-based
Conditions: TNF-α activity in supernatant of human PBMC, 24 hours incubation, 1000 to 0.000238 nM
Description: Materials and general procedures. Human peripheral blood mononuclear cells (PBMC) were obtained from BenTek, frozen at 25×10^6 cell/mL in 10% DMSO (Sigma) prepared in fetal bovine serum (Gibco) and stored in liquid nitrogen. […] General procedure for in vitro small molecule screening. […] TNF-α activity was assessed in the supernatant by ELISA (eBioscience) or HTRF (CisBio) per the manufacturer's instructions. […]

Consider the compound shown here: CCCN(CCC)C(=O)C1=Cc2ccc(-c3ccc(C(=O)N4CCCC4c4ccccc4)cc3)cc2N=C(N)C1 (stereo not shown) What is its recorded EC50?
50 to 500 nM

Consider the compound shown here: CCCN(CCC)C(=O)C1=Cc2ccc(-c3ccc(C(=O)N4CCC(O)(c5ccccc5)CC4)cc3)cc2N=C(N)C1 What is its recorded EC50?
50 to 500 nM

Consider the compound shown here: CCCN(CCC)C(=O)C1=Cc2ccc(-c3ccc(C(=O)N4CCN[C@@H](c5ccccc5)C4)cc3)cc2N=C(N)C1 What is its recorded EC50?
< 50 nM

Consider the compound shown here: CCCN(CCC)C(=O)C1=Cc2ccc(-c3ccc(C(=O)N4CCN(c5ccccc5)CC4)cc3)cc2N=C(N)C1 What is its recorded EC50?
50 to 500 nM

Consider the compound shown here: CCCN(CCC)C(=O)C1=Cc2ccc(-c3ccc(C(=O)N4CCC(CO)(c5ccccc5)CC4)cc3)cc2N=C(N)C1 What is its recorded EC50?
> 500 nM

Consider the compound shown here: CCCN(CCC)C(=O)C1=Cc2ccc(-c3ccc(C(=O)N4CCCC(CO)C4)cc3)cc2N=C(N)C1 (stereo not shown) What is its recorded EC50?
50 to 500 nM

Consider the compound shown here: CCCN(CCC)C(=O)C1=Cc2ccc(-c3ccc(C(=O)N4CCc5ccccc5C4)cc3)cc2N=C(N)C1 What is its recorded EC50?
> 500 nM

====

test system: Human peripheral blood mononuclear cells (PBMC); test: PBMC screening assay: TNF-α in supernatant by ELISA or HTRF; type: cell-based; conditions: TNF-α activity in supernatant of human PBMC, 24 hours incubation, 1000 to 0.000238 nM
pEC50: −log10 of the molar value.
Kindly state pEC50 for each of the entries shown.

Consider the compound shown here: CCCN(CCC)C(=O)C1=Cc2ccc(-c3ccc(C(=O)N4CCC(O)(c5ccccc5)C4)cc3)cc2N=C(N)C1 (stereo not shown) What is its recorded pEC50?
6.30 to 7.30

Consider the compound shown here: CCCN(CCC)C(=O)C1=Cc2ccc(-c3ccc(C(=O)N4CCNC(c5ccccc5)C4)cc3)cc2N=C(N)C1 (stereo not shown) What is its recorded pEC50?
> 7.30

Consider the compound shown here: CCCN(CCC)C(=O)C1=Cc2ccc(-c3ccc(C(=O)N4CCCC4CO)cc3)cc2N=C(N)C1 (stereo not shown) What is its recorded pEC50?
6.30 to 7.30

Consider the compound shown here: CCCN(CCC)C(=O)C1=Cc2ccc(-c3ccc(C(=O)N4CCN[C@H](c5ccccc5)C4)cc3)cc2N=C(N)C1 What is its recorded pEC50?
> 7.30
